EXPERIMENTAL SYSTEM: UniProtKB O00206
Sequence (O00206 whole entry): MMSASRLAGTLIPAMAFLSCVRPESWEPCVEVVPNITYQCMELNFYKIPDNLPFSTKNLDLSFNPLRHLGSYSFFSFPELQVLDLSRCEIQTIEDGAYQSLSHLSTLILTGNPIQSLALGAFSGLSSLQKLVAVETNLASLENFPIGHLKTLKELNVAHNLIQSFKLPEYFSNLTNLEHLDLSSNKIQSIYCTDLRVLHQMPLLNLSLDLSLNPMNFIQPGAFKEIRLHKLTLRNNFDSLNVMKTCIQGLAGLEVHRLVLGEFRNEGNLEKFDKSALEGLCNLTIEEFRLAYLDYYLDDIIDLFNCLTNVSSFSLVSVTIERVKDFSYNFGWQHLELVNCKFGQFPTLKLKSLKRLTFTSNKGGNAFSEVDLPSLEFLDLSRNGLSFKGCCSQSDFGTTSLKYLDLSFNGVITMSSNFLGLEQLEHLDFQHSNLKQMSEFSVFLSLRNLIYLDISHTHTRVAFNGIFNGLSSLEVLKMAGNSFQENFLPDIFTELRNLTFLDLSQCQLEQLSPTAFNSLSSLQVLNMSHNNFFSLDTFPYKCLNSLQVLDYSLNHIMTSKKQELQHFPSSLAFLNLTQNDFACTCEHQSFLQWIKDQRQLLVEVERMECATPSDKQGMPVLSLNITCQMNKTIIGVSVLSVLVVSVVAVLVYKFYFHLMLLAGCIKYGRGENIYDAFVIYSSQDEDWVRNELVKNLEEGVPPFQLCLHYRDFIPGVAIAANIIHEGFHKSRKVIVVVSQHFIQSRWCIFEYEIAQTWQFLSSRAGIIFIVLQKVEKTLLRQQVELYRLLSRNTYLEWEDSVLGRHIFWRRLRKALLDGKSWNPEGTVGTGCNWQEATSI
ASSAY PROCEDURE: Antagonist activity at TLR4 (unknown origin) expressed in human AD293 cells assessed as inhibition of LPS/ATP-stimulated TLR4/NF-kB signaling pathway at 10 uM after 16 hrs by luciferase reporter gene assay
Type: cell-based
Active and inactive are the calls of the source. The calls are words filed in the database; no cut-off is given here.
PROPERTY LABEL: inhibition

>>> value_measured("C[C@H]1O[C@@H]2C[C@@H]3[C@@]4(C)CC[C@H](OC(=O)/C=C/c5ccc([N+](=O)[O-])cc5)CC4=CC[C@@]3(O)[C@@]3(O)CC[C@]1(OC(=O)/C=C/c1ccccc1)[C@@]23C")
"inactive"
>>> value_measured("COc1ccc(/C=C/C(=O)O[C@H]2CC[C@@]3(C)C(=CC[C@]4(O)[C@@H]3C[C@@H](OC(=O)/C=C/c3ccccc3)[C@@]3(C)[C@]4(O)CC[C@@]3(O)C(C)=O)C2)cc1")
"inactive"
>>> value_measured("CC(=O)[C@]1(OC(=O)c2ccc(Cl)nc2)CC[C@@]2(O)[C@]1(C)[C@H](OC(=O)c1ccc(O)cc1)C[C@@H]1[C@@]3(C)CC[C@H](OC(=O)c4ccc(Cl)nc4)CC3=CC[C@]12O")
"inactive"
